B1: MNAT1 (parent)
chain: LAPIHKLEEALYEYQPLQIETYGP

Variants of: B1
Test: protein stability index of a GFP-peptide fusion (GPS, HEK-293T) (PSI 1-6); higher = more stable;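 also: lentivirally expressed fusions sorted by FACS into six bins by GFP to DsRed ratio, PSI derived from sequencing read proportions per bin multiplied by bin number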
Conditions: c terminus: a fixed tail appended
Each record here notes measured protein stability index.
REPORTED ENDPOINT: protein stability index

>  <RESIDUE CODES>
LAPIHKLEEALYEYQPLQIEKYGP [T21K]

>  <REPORTED ENDPOINT>
protein stability index

>  <MEASURED RESULT>
2.5

$$$$
>  <RESIDUE CODES>
LAPIHKLEEALYEYQPVQIETYGP [L17V]

>  <REPORTED ENDPOINT>
protein stability index

>  <MEASURED RESULT>
3.02

$$$$
>  <RESIDUE CODES>
LAPIHKLEEALYEYQPLQIETYSP [G23S]

>  <REPORTED ENDPOINT>
protein stability index

>  <MEASURED RESULT>
2.1

$$$$
>  <RESIDUE CODES>
LAPIHKLYEALYEYQPLQIETYGP [E8Y]

>  <REPORTED ENDPOINT>
protein stability index

>  <MEASURED RESULT>
2.08

$$$$
>  <RESIDUE CODES>
LAPIHKLEEALYEYAPLQIETYGP [Q15A]

>  <REPORTED ENDPOINT>
protein stability index

>  <MEASURED RESULT>
2.17

$$$$
>  <RESIDUE CODES>
LAPIHKLEEALYPYQPLQIETYGP [E13P]

>  <REPORTED ENDPOINT>
protein stability index

>  <MEASURED RESULT>
1.68

$$$$
>  <RESIDUE CODES>
LAPIHKLNEALYEYQPLQIETYGP [E8N]

>  <REPORTED ENDPOINT>
protein stability index

>  <MEASURED RESULT>
1.8

$$$$
>  <RESIDUE CODES>
LAPIHKLEEALYEGQPLQIETYGP [Y14G]

>  <REPORTED ENDPOINT>
protein stability index

>  <MEASURED RESULT>
3.45

$$$$
>  <RESIDUE CODES>
LAPIHKLELALYEYQPLQIETYGP [E9L]

>  <REPORTED ENDPOINT>
protein stability index

>  <MEASURED RESULT>
3.09

$$$$
>  <RESIDUE CODES>
LAPIHKLEEALKEYQPLQIETYGP [Y12K]

>  <REPORTED ENDPOINT>
protein stability index

>  <MEASURED RESULT>
1.93

$$$$
>  <RESIDUE CODES>
LAPIHKLEEALYEYQPNQIETYGP [L17N]

>  <REPORTED ENDPOINT>
protein stability index

>  <MEASURED RESULT>
3.01

$$$$
